meta.source: patent US4070469A

System: udder
Experiment: Number of leucocytes (somatic cells) in milk / irritation of the udder
Type: in vivo, cow
Conditions: 56 hrs after 500 mg in 7 ml P.E.G. base
property measured: number of leucocytes (sematic cells) in milk, 56 hrs.

Some entries whose results are on file:
O=C(O)c1cc(-c2ccc([N+](=O)[O-])o2)c2ccccc2[n+]1[O-] = 0.95 10^6 per ml
CCOc1ccc2c(-c3ccc([N+](=O)[O-])o3)cc(C(=O)O)[n+]([O-])c2c1 = 2.65 10^6 per ml
Cc1cc(-c2ccc([N+](=O)[O-])o2)c2ccc(O)cc2[n+]1[O-] = 3.15 10^6 per ml

Switching to the query record.
Considering `COc1ccc2c(-c3ccc([N+](=O)[O-])o3)cc[n+]([O-])c2c1` , its number of leucocytes (sematic cells) in milk, 56 hrs. with udder was recorded as 2 10^6 per ml

----------
# reported number of leucocytes (sematic cells) in milk, 48 hrs.; entries follow
Test system: udder
Assay: Number of leucocytes (somatic cells) in milk / irritation of the udder
Format: in vivo, cow
Settings: 48 hrs after 500 mg in 7 ml P.E.G. base

O=C(O)c1cc(-c2ccc([N+](=O)[O-])o2)c2ccccc2[n+]1[O-] [Compound 1] = 1.5 10^6 per ml
Cc1cc(-c2ccc([N+](=O)[O-])o2)c2ccc(O)cc2[n+]1[O-] [Compound 22] = 5 10^6 per ml
CCOc1ccc2c(-c3ccc([N+](=O)[O-])o3)cc(C(=O)O)[n+]([O-])c2c1 [Compound 26] = 3 10^6 per ml

We next turn to a different molecule, shown below.
# COc1ccc2c(-c3ccc([N+](=O)[O-])o3)cc[n+]([O-])c2c1 [Compound 19] with udder: number of leucocytes (sematic cells) in milk, 48 hrs. is 3 10^6 per ml

----------
number of leucocytes (sematic cells) in milk, 40 hrs. values by entry
System: udder
Test: Number of leucocytes (somatic cells) in milk / irritation of the udder
Assay type: in vivo, cow
Conditions: 40 hrs after 500 mg in 7 ml P.E.G. base

COc1ccc2c(-c3ccc([N+](=O)[O-])o3)cc[n+]([O-])c2c1 = 5 10^6 per ml
Cc1cc(-c2ccc([N+](=O)[O-])o2)c2ccc(O)cc2[n+]1[O-] = 5 10^6 per ml
O=C(O)c1cc(-c2ccc([N+](=O)[O-])o2)c2ccccc2[n+]1[O-] = 0.95 10^6 per ml

// moving on: another record for number of leucocytes (sematic cells) in milk, 40 hrs.
The measured number of leucocytes (sematic cells) in milk, 40 hrs. that `CCOc1ccc2c(-c3ccc([N+](=O)[O-])o3)cc(C(=O)O)[n+]([O-])c2c1` showed for udder is > 7.5 10^6 per ml

----------
System: udder
Test: Number of leucocytes (somatic cells) in milk / irritation of the udder
Assay type: in vivo, cow
Conditions: before administration (baseline)
property measured: number of leucocytes (sematic cells) in milk, before

Record excerpt, results attached:
Cc1cc(-c2ccc([N+](=O)[O-])o2)c2ccc(O)cc2[n+]1[O-] = 0.28 10^6 per ml
CCOc1ccc2c(-c3ccc([N+](=O)[O-])o3)cc(C(=O)O)[n+]([O-])c2c1 = 0.22 10^6 per ml
O=C(O)c1cc(-c2ccc([N+](=O)[O-])o2)c2ccccc2[n+]1[O-] = 0.28 10^6 per ml

Here is another compound to look at.
The measured number of leucocytes (sematic cells) in milk, before associated with `COc1ccc2c(-c3ccc([N+](=O)[O-])o3)cc[n+]([O-])c2c1` reads 0.60 10^6 per ml
